Tested on: Staphylococcus aureus NCTC 10788

>  <STRUCTURE_STRING>
CC[C@H](C)[C@H](NC(=O)[C@H](C)NC(=O)[C@H](CO)NC(=O)[C@@H]1CCCN1C(=O)[C@@H](NC(=O)[C@H](CC(C)C)NC(=O)[C@H](CO)NC(=O)[C@H](Cc1ccccc1)NC(=O)[C@H](CC(C)C)NC(=O)[C@@H](N)Cc1ccccc1)[C@@H](C)CC)C(=O)N[C@@H](C)C(=O)NCC(=O)N[C@@H](CC(C)C)C(=O)N[C@H](C(=O)N[C@@H](CO)C(=O)N[C@@H](C)C(=O)N[C@H](C(=O)N[C@@H](CCCN=C(N)N)C(=O)N[C@@H](CC(N)=O)C(N)=O)[C@@H](C)CC)C(C)C

>  <MIC, µM>
8.04

$$$$

* * *

Test system: Staphylococcus aureus
EXPERIMENT_NOTES: ≥ marks a high value that may be exact or a test limit, other limits are often not marked, values filed in µg/mL are converted to µM
Item-by-item account of MIC
QUANTITY_NAME: MIC (µM)

>  <STRUCTURE_STRING>
CC(C)C[C@H](NC(=O)[C@H](CCCCN)NC(=O)[C@H](CCCN=C(N)N)NC(=O)[C@H](Cc1ccccc1)NC(=O)[C@H](Cc1ccccc1)NC(=O)[C@H](CCCCN)NC(=O)[C@H](CCCCN)NC(=O)[C@H](Cc1ccccc1)NC(=O)[C@H](CCCN=C(N)N)NC(=O)[C@H](CCCCN)NC(=O)[C@@H](N)C(C)C)C(=O)N[C@@H](CCCCN)C(=O)N[C@@H](CCCCN)C(=O)N[C@@H](CO)C(=O)N[C@H](C(N)=O)C(C)C

>  <MEASUREMENT_QUALIFIER>
=

>  <OBSERVED_MEASUREMENT>
8.25

$$$$
>  <STRUCTURE_STRING>
CC(C)C[C@H](NC(=O)[C@H](CC(C)C)NC(=O)[C@H](CCCN=C(N)N)NC(=O)[C@H](Cc1cnc[nH]1)NC(=O)[C@@H](NC(=O)[C@H](CCCN=C(N)N)NC(=O)CNC(=O)[C@@H](NC(=O)[C@@H]1CCCN1C(=O)[C@H](Cc1ccccc1)NC(=O)[C@H](CCC(N)=O)NC(=O)[C@H](CC(C)C)NC(=O)CNC(=O)[C@H](C)NC(=O)[C@@H](N)CCCN=C(N)N)C(C)C)C(C)C)C(=O)O

>  <MEASUREMENT_QUALIFIER>
=

>  <OBSERVED_MEASUREMENT>
74.5

$$$$
>  <STRUCTURE_STRING>
CC(C)C[C@H](NC(=O)[C@H](CCCCN)NC(=O)[C@H](Cc1ccccc1)NC(=O)[C@@H](NC(=O)[C@@H](NC(=O)CNC(=O)[C@H](CC(C)C)NC(=O)[C@@H](N)Cc1ccccc1)C(C)C)C(C)C)C(=O)N[C@H](C(=O)N[C@@H](CO)C(=O)N[C@@H](CCCCN)C(=O)N[C@H](C(=O)N[C@@H](Cc1ccccc1)C(=O)N1CCC[C@H]1C(=O)N[C@@H](C)C(=O)N[C@H](C(=O)N[C@@H](Cc1ccccc1)C(=O)NCC(=O)N[C@@H](CCCCN)C(=O)N[C@H](C(=O)O)C(C)C)C(C)C)C(C)C)C(C)C

>  <MEASUREMENT_QUALIFIER>
=

>  <OBSERVED_MEASUREMENT>
3.67

$$$$
>  <STRUCTURE_STRING>
CC[C@H](C)[C@H](NC(=O)[C@H](CC(C)C)NC(=O)[C@H](CCCCN)NC(=O)[C@H](CCSC)NC(=O)[C@@H](NC(=O)[C@H](C)NC(=O)[C@H](C)NC(=O)[C@H](CCCN=C(N)N)NC(=O)[C@H](CCCCN)NC(=O)[C@H](Cc1ccccc1)NC(=O)[C@H](Cc1ccccc1)NC(=O)[C@H](CC(C)C)NC(=O)[C@@H](NC(=O)[C@H](C)NC(=O)CNC(=O)[C@@H](NC(=O)[C@H](CO)NC(=O)[C@@H]1CCCN1C(=O)[C@@H](NC(=O)[C@@H](N)CO)C(C)C)C(C)C)C(C)C)C(C)C)C(=O)O

>  <MEASUREMENT_QUALIFIER>
>

>  <OBSERVED_MEASUREMENT>
120

$$$$
>  <STRUCTURE_STRING>
CC[C@H](C)[C@H](NC(=O)[C@H](C)NC(=O)[C@H](CO)NC(=O)[C@H](CC(C)C)NC(=O)[C@@H](N)Cc1ccccc1)C(=O)N[C@@H](C)C(=O)N[C@@H](CO)C(=O)N[C@@H](CCSC)C(=O)N[C@@H](CC(C)C)C(=O)NCC(=O)N[C@@H](CCCCN)C(=O)N[C@@H](Cc1ccccc1)C(=O)N[C@@H](CC(C)C)C(=O)O

>  <MEASUREMENT_QUALIFIER>
=

>  <OBSERVED_MEASUREMENT>
200

$$$$
>  <STRUCTURE_STRING>
CC[C@H](C)[C@H](N)C(=O)N[C@@H](CC(C)C)C(=O)N1CCC[C@H]1C(=O)N[C@@H](CC(C)C)C(=O)N[C@@H](CCCCN)C(=O)N[C@@H](CC(C)C)C(=O)N1CCC[C@H]1C(=O)N[C@@H](CC(C)C)C(=O)N[C@@H](CC(C)C)C(=O)N1CCC[C@H]1C(=O)N[C@@H](Cc1c[nH]c2ccccc12)C(=O)N[C@@H](CCCN=C(N)N)C(=O)N[C@@H](CCCN=C(N)N)C(N)=O

>  <MEASUREMENT_QUALIFIER>
=

>  <OBSERVED_MEASUREMENT>
3.1

$$$$
>  <STRUCTURE_STRING>
CC[C@H](C)[C@H](N)C(=O)N[C@@H](CS)C(=O)N[C@@H](CCCN=C(N)N)C(=O)N[C@@H](CCCCN)C(=O)N1CCC[C@H]1C(=O)N[C@H](C(=O)N[C@H](C(=O)N[C@@H](CS)C(=O)N[C@@H](CCCN=C(N)N)C(=O)N[C@@H](CCCCN)C(=O)N1CCC[C@H]1C(=O)N[C@H](C(=O)N[C@H](C(=O)N[C@@H](CS)C(=O)N[C@@H](CCCN=C(N)N)C(=O)N[C@@H](CCCCN)C(=O)N1CCC[C@H]1C(=O)N[C@H](C(N)=O)[C@@H](C)CC)[C@@H](C)CC)[C@@H](C)CC)[C@@H](C)CC)[C@@H](C)CC

>  <MEASUREMENT_QUALIFIER>
>

>  <OBSERVED_MEASUREMENT>
64

$$$$
>  <STRUCTURE_STRING>
CC[C@H](C)[C@H](NC(=O)CNC(=O)[C@H](CO)NC(=O)[C@H](CC(C)C)NC(=O)[C@H](CC(C)C)NC(=O)CN)C(=O)N[C@@H](CC(C)C)C(=O)NCC(=O)N[C@@H](C)C(=O)NCC(=O)N[C@@H](CCCCN)C(=O)N[C@@H](Cc1cnc[nH]1)C(=O)N[C@H](C(=O)N[C@H](C(=O)N[C@H]1CSSC[C@@H](C(=O)O)NC(=O)[C@H](CC(C)C)NC(=O)CNC(=O)[C@H](CO)NC(=O)[C@H](CC(C)C)NC(=O)CNC1=O)C(C)C)[C@@H](C)CC

>  <MEASUREMENT_QUALIFIER>
=

>  <OBSERVED_MEASUREMENT>
38.1

$$$$
>  <STRUCTURE_STRING>
CC(C)C[C@H](NC(=O)[C@@H](N)CCCN=C(N)N)C(=O)N1CCC[C@H]1C(=O)N[C@@H](Cc1c[nH]c2ccccc12)C(=O)N[C@@H](CCCN=C(N)N)C(=O)N[C@@H](Cc1c[nH]c2ccccc12)C(=O)N1CCC[C@H]1C(=O)N[C@@H](CCCN=C(N)N)C(=O)N[C@@H](CCCN=C(N)N)C(=O)N1CCC[C@H]1C(=O)N[C@@H](Cc1c[nH]c2ccccc12)C(=O)N[C@@H](CCCN=C(N)N)C(=O)N[C@@H](CCCN=C(N)N)C(N)=O

>  <MEASUREMENT_QUALIFIER>
=

>  <OBSERVED_MEASUREMENT>
130

$$$$

These data points were gathered from DBAASP.
